HDAC6 selectivity (fold) values for the compounds below.
biological target: human recombinant HDAC6 (Homo sapiens, UniProt Q9UBN7); construct: purchased Calbiochem 382180; assay: HDAC6 enzyme activity inhibition assay (HDAC Fluorimetric Drug Discovery Kit); type: biochemical; details: HDAC1 vs HDAC6
Sequence (Q9UBN7 whole entry): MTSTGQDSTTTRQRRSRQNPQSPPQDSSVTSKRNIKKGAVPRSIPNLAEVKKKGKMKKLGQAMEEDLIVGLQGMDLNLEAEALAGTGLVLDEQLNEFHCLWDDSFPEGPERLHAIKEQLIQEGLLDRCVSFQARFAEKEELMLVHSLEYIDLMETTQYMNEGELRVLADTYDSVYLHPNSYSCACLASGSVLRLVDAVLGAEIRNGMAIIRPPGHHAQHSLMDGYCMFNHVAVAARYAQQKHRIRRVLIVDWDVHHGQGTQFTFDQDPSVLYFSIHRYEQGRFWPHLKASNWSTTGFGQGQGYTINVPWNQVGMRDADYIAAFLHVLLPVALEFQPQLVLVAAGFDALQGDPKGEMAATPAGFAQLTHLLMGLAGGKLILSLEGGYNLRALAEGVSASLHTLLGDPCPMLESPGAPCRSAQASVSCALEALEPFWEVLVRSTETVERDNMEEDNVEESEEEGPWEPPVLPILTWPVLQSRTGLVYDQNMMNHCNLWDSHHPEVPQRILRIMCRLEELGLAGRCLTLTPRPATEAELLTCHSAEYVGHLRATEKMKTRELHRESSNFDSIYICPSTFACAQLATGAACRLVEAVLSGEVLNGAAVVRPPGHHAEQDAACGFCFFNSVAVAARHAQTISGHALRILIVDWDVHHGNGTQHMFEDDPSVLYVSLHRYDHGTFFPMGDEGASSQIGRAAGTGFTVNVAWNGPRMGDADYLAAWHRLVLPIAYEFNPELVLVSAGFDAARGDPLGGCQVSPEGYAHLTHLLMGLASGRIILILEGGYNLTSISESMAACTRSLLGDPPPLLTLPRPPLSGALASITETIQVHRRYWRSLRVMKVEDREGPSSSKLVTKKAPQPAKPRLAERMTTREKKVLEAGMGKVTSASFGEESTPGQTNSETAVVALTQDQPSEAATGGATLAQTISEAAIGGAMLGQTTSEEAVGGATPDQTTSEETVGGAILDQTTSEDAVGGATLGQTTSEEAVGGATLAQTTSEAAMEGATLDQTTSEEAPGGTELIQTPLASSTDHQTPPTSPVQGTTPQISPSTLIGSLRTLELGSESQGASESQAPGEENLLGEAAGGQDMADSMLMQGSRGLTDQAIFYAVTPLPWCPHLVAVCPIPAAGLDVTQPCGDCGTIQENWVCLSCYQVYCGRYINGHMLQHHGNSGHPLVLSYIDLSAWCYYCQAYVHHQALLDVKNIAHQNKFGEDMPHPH
Numeric only. Scale: fold

# annotated cases, reported HDAC6 selectivity (fold) shown
INSERT INTO measurements (compound, endpoint_value) VALUES
  ('O=S(=O)(CCN1CCN(c2ccc(Cl)c(Cl)c2)CC1)N(Cc1ccc(-c2nnc(C(F)F)o2)cc1)c1ccccc1', 112),
  ('O=S(=O)(CCN1CCC[C@H](O)C1)N(Cc1ccc(-c2nnc(C(F)F)o2)cc1)c1ccccc1', 1718);

Give the reported HDAC6 selectivity (fold) for this compound. COCC(C)N1CCC(S(=O)(=O)N(Cc2ccc(-c3nnc(C(F)F)o3)cn2)c2ccccc2)CC1 (stereo not drawn)
2227

Specify HDAC6 selectivity (fold) for O=S(=O)(CCN1CCCC(O)C1)N(Cc1ccc(-c2nnc(C(F)F)o2)cc1)c1ccccc1 (stereo not drawn) and stop.
782

Supply reported HDAC6 selectivity (fold) belonging to this compound: Cc1cccc(N(Cc2ccc(-c3nnc(C(F)F)o3)cn2)S(=O)(=O)C2CCN([C@H]3CC[C@@H](F)CC3)CC2)c1
429

State its HDAC6 selectivity (fold): CN1CCN(CCCS(=O)(=O)N(Cc2ccc(-c3nnc(C(F)F)o3)cc2F)c2ccccc2)CC1
2326

Please give measured HDAC6 selectivity (fold) of the following entry: CS(=O)(=O)N(Cc1ccc(-c2nnc(C(F)F)o2)cc1)c1nccs1
148

Give HDAC6 selectivity (fold) for CS(=O)(=O)N(Cc1ccc(-c2nnc(C(F)F)o2)c(F)c1)c1ccccc1
63

Return HDAC6 selectivity (fold) (reported value) for this compound: Cc1nn(C)c2ccc(N(Cc3ccc(-c4nnc(C(F)F)o4)cc3)S(C)(=O)=O)cc12
784

Determine its reported HDAC6 selectivity (fold): O=S(=O)(CCn1ccnc1)N(Cc1ccc(-c2nnc(C(F)F)o2)cc1)c1ccccc1
2695

Hello, please tell me recorded HDAC6 selectivity (fold) for this one: O=S(=O)(CCCN1CCOCC1)N(Cc1ccc(-c2nnc(C(F)F)o2)cn1)c1ccc(F)c(Cl)c1
874

Input O=S(=O)(C1CCN(C2CCC2)CC1)N(Cc1ccc(-c2nnc(C(F)F)o2)cn1)c1ccccc1 , output reported HDAC6 selectivity (fold).
2192

###

Target: human recombinant HDAC6 (Homo sapiens)
Construct: purchased Calbiochem 382180
Experiment: HDAC6 enzyme activity inhibition assay (HDAC Fluorimetric Drug Discovery Kit)
Format: biochemical
Conditions: HDAC1 vs HDAC6
Experimental: In order to examine the HDAC6 selectivity of the compounds of formula I of the present invention by HDAC1 and HDAC6 enzymatic activity inhibition assays, an experiment was performed using a conventional substance as a control. HDAC enzyme activity was measured using a HDAC Fluorimetric Drug Discovery Kit (BML-AK511, 516, Enzo Life Science). […] Based on the resulting values, each IC50 value was calculated using GraphPad Prism4.0 program.
The threshold is inclusive: HDAC6 selectivity (fold) of exactly 900 fold counts as True; values below receive False.

Past entries and their recorded results:
INSERT INTO assay_data (compound_structure_string, tgt, category_label) VALUES
  ('Cc1cccc(N(Cc2ccc(-c3nnc(C(F)F)o3)cc2)S(=O)(=O)C2CCN([C@H]3CC[C@@H](C(F)(F)F)CC3)CC2)c1', 'human recombinant HDAC6 (Homo sapiens)', 'False'),
  ('O=S(=O)(CCN1CCN(CCc2ccncc2)CC1)N(Cc1ccc(-c2nnc(C(F)F)o2)cc1)c1ccccc1', 'human recombinant HDAC6 (Homo sapiens)', 'True'),
  ('CCS(=O)(=O)N(Cc1ccc(-c2nnc(C(F)(F)F)o2)cc1F)c1ccccc1', 'human recombinant HDAC6 (Homo sapiens)', 'False'),
  ('CCS(=O)(=O)N(Cc1ccc(-c2nnc(C(F)F)o2)cn1)c1ccccc1', 'human recombinant HDAC6 (Homo sapiens)', 'True');

Could you tell me if the measured HDAC6 selectivity (fold) of CCS(=O)(=O)N(Cc1ccc(-c2nnc(C(F)F)o2)cc1F)c1cccc(C2CCN(C)CC2)c1 reaches 900 fold or more?
False

Is it the case that O=S(=O)(CCCN1CC[C@H](F)C1)N(Cc1ccc(-c2nnc(C(F)F)o2)cc1)c1ccccc1 has HDAC6 selectivity (fold) reaching or exceeding 900 fold?
False

Hi, just wondering whether CS(=O)(=O)N(Cc1cnc(-c2nnc(C(F)(F)F)o2)cn1)c1ccccc1 shows HDAC6 selectivity (fold) of 900 fold or higher.
False

Dear colleague, could you confirm whether O=S(=O)(CCN1CCCC1)N(Cc1ccc(-c2nnc(C(F)F)o2)cc1F)c1ccc(F)c(Cl)c1 has HDAC6 selectivity (fold) at or above 900 fold?
True

# bool: HDAC6 selectivity (fold) of CS(=O)(=O)N1CC(N2CCC(S(=O)(=O)N(Cc3ccc(-c4nnc(C(F)F)o4)cc3F)c3ccc(F)c(Cl)c3)CC2)C1 >= 900 fold
True

Hello, I need to know if O=S(=O)(CCN1CC[C@@H](CO)C1)N(Cc1ccc(-c2nnc(C(F)F)o2)cc1)c1ccccc1 has measured HDAC6 selectivity (fold) not below 900 fold. Thanks!
True

Could you verify whether the entry CS(=O)(=O)N(Cc1ccc(-c2nnc(C(F)(F)F)o2)cn1)c1cccc(F)c1 shows HDAC6 selectivity (fold) of no less than 900 fold?
False

Check the entry O=S(=O)(CCN1CC[C@H](O)C1)N(Cc1ccc(-c2nnc(C(F)F)o2)cc1)c1ccccc1 : does HDAC6 selectivity (fold) equal or exceed 900 fold?
True

# bool: HDAC6 selectivity (fold) of CCS(=O)(=O)N(Cc1ccc(-c2nnc(C(F)F)o2)cc1F)c1ccc2cnn(C)c2c1 >= 900 fold
True

Does HDAC6 selectivity (fold) meet or surpass 900 fold for CS(=O)(=O)N(Cc1ccc(-c2nnc(C(F)(F)F)o2)cc1F)c1cncnc1 ?
True

###

Below is a list of entries, each paired with its recorded IC50 value.
target: human recombinant HDAC6 (Homo sapiens, UniProt Q9UBN7); assay: HDAC6 enzyme activity inhibition assay (HDAC Fluorimetric Drug Discovery Kit); settings: same protocol as the HDAC1 enzyme activity test
The response must be a number in nM with no trailing unit.

INSERT INTO measurements (compound_structure_string, measured_metric, endpoint_value) VALUES
  ('O=S(=O)(CCN1CCN(CCCO)CC1)N(Cc1ccc(-c2nnc(C(F)F)o2)cc1)c1ccccc1', 'IC50', 23);

Write down IC50 measured for item CS(=O)(=O)N(Cc1ccc(-c2nnc(C(F)F)o2)cc1)c1ccccc1
23

Identify the reported IC50 for the following entry. CS(=O)(=O)N(Cc1ccc(-c2nnc(C(F)(F)F)o2)cc1F)c1ccccc1
38

Tell me IC50 reported for CCN(CCS(=O)(=O)N(Cc1ccc(-c2nnc(C(F)F)o2)cc1)c1ccccc1)Cc1ccccc1
190

###

// values below are reported HDAC6 selectivity (fold)
molecular target: human recombinant HDAC6 (Homo sapiens, UniProt Q9UBN7); construct: purchased Calbiochem 382180; experiment: HDAC6 enzyme activity inhibition assay (HDAC Fluorimetric Drug Discovery Kit); type: biochemical; conditions: HDAC1 vs HDAC6
Please reply with the bare figure in fold and do not write the unit itself.

Examples with their reported HDAC6 selectivity (fold) follow.
INSERT INTO results (compound_structure_string, tgt, endpoint_value) VALUES
  ('Cc1cccc(N(Cc2ccc(-c3nnc(C(F)F)o3)cn2)S(=O)(=O)C2CCN(C3CN(C(C)C)C3)CC2)c1', 'human recombinant HDAC6 (Homo sapiens, UniProt Q9UBN7)', 4167),
  ('CCN1CCN(CCS(=O)(=O)N(Cc2ccc(-c3nnc(C(F)F)o3)cc2)c2ccccc2)CC1', 'human recombinant HDAC6 (Homo sapiens, UniProt Q9UBN7)', 1447),
  ('O=S(=O)(CCN1CCC(Cc2ccccc2)CC1)N(Cc1ccc(-c2nnc(C(F)F)o2)cc1)c1ccccc1', 'human recombinant HDAC6 (Homo sapiens, UniProt Q9UBN7)', 100),
  ('O=S(=O)(CCN1CC(F)(F)C1)N(Cc1ccc(-c2nnc(C(F)F)o2)cc1)c1ccccc1', 'human recombinant HDAC6 (Homo sapiens, UniProt Q9UBN7)', 747);

Consider the record given below.
Supply reported HDAC6 selectivity (fold) belonging to this compound: CCS(=O)(=O)N(Cc1ccc(-c2nnc(C(F)F)o2)cc1F)c1cccc(CN2CCN(S(C)(=O)=O)CC2)c1
952

###

Recorded measurements of IC50, one per entry
target: human recombinant HDAC1 (Homo sapiens); construct: purchased Enzo Life Science BML-SE456; assay: HDAC1 enzyme activity inhibition assay (HDAC Fluorimetric Drug Discovery Kit); assay type: biochemical; conditions: 0.3 μg enzyme, 10 μM substrate, 30° C., 60 minutes
Sequence (Q13547 whole entry): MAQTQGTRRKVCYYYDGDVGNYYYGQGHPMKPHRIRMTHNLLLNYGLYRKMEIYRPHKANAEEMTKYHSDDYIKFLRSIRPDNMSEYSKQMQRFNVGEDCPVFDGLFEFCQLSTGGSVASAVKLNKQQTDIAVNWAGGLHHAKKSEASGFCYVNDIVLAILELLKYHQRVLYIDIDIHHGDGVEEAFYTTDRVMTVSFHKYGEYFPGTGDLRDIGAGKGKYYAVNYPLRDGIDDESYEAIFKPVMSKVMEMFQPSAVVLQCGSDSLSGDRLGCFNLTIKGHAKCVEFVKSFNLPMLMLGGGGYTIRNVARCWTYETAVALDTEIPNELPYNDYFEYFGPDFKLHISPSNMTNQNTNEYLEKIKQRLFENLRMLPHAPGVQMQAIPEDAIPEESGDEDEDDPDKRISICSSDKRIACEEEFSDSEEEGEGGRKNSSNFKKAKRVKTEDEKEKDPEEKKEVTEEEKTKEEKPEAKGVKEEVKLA
Enter your answer as a number in µM; do not include the unit.

INSERT INTO measurements (compound_structure_string, measured_metric, unit_descriptor, endpoint_value) VALUES
  ('Cc1cccc(N(Cc2ccc(-c3nnc(C(F)F)o3)cn2)S(=O)(=O)C2CCN([C@H]3CC[C@@H](F)CC3)CC2)c1', 'IC50', 'µM', 20),
  ('CS(=O)(=O)N(Cc1ccc(-c2nnc(C(F)(F)F)o2)cn1)c1cccc(F)c1', 'IC50', 'µM', 28),
  ('CC(C)N1CCC(S(=O)(=O)N(Cc2ccc(-c3nnc(C(F)F)o3)cc2)c2ccccc2)CC1', 'IC50', 'µM', 40.9),
  ('O=S(=O)(CCCO)N(Cc1ccc(-c2nnc(C(F)F)o2)cc1)c1ccccc1', 'IC50', 'µM', 65.1),
  ('O=S(=O)(C1CCN(C2COC2)CC1)N(Cc1ccc(-c2nnc(C(F)F)o2)cn1)c1ccc(F)c(Cl)c1', 'IC50', 'µM', 56.7),
  ('C[C@@H]1CN(CCS(=O)(=O)N(Cc2ccc(-c3nnc(C(F)F)o3)cc2)c2ccccc2)C[C@H](C)N1C', 'IC50', 'µM', 109);

With those in mind, consider the next molecule.
Supply IC50 measured with human recombinant HDAC1 (Homo sapiens) for CC(=O)N1CC(N2CCC(S(=O)(=O)N(Cc3ccc(-c4nnc(C(F)F)o4)cn3)c3ccc(F)c(Cl)c3)CC2)C1 .
78.1
